Tested on: GENE-TOX genotoxicity assays, various organisms and cells
test.protocol: GENE-TOX mutagenicity studies
test.conditions: Species/Cell Type: Nonhuman; Assay Type: Chromosome aberrations in vitro; Assay Code: CY&+; Evaluation Type: Evaluation A (Pre-1980)
The source made the active and inactive calls. How the calls were made is not given here.
parameter: mutagenic call

structure.smiles: O=P(N1CC1)(N1CC1)N1CC1
value.observed: active; positive
--
structure.smiles: CC(C)NP(=O)(N1CC1)N1CC1
value.observed: active; positive
--
structure.smiles: COc1cc2c(c3oc4cccc(O)c4c(=O)c13)[C@@H]1C=CO[C@@H]1O2
value.observed: active; positive
--
structure.smiles: CCCCNP(=O)(N1CC1)N1CC1
value.observed: active; positive
--
structure.smiles: CCCNP(=O)(N1CC1)N1CC1
value.observed: active; positive
--
structure.smiles: Clc1ccc(C(c2ccc(Cl)cc2)C(Cl)(Cl)Cl)cc1
value.observed: active; positive
--
structure.smiles: [O]=[Cr](=[O])([OH])[O][Cr](=[O])(=[O])[OH]
value.observed: active; positive

###

Test system: GENE-TOX genotoxicity assays, various organisms and cells
test.protocol: GENE-TOX mutagenicity studies
test.conditions: Species/Cell Type: Escherichia coli WP2; Assay Type: Tryptophan reverse gene mutation; Assay Code: WP2+D; Dose Response: With dose response; Evaluation Type: Evaluation A (Pre-1980)
Text: GENE-TOX provides genetic toxicology (mutagenicity) test data from expert peer review of open scientific literature for more than 3,000 chemicals from the United States Environmental Protection Agency (EPA). GENE-TOX was established to select assay systems for evaluation, review data in the scientific literature, and recommend proper testing protocols and evaluation procedures for these systems. GENE-TOX covers the years 1991 - 1998. It is no longer updated. […]
Calls of active or inactive are those of the source. No rule for the calls is given here.
parameter: mutagenic call

compound: Cc1ccc(C2CO2)cc1C (configuration not stated)
parameter: mutagenic call
value.observed: active; positive
--
compound: O=C1NCCN1c1ncc([N+](=O)[O-])s1
parameter: mutagenic call
value.observed: active; positive
--
compound: C=CC#N
parameter: mutagenic call
value.observed: active; positive
--
compound: O=c1nc(NO)ccn1[C@@H]1O[C@H](CO)[C@@H](O)[C@H]1O
parameter: mutagenic call
value.observed: active; positive
--
compound: BrCc1c2ccccc2cc2c1ccc1ccccc12
parameter: mutagenic call
value.observed: active; positive
--
compound: COS(C)(=O)=O
parameter: mutagenic call
value.observed: active; positive
--
compound: CN[C@H]1[C@@H](O[C@@H]2C3CC#CC4O[C@@]4(C4COC(=O)O4)C#CC3=C[C@H]2OC(=O)c2c(O)ccc3c(C)cc(OC)cc23)O[C@H](C)[C@H](O)[C@@H]1O (some centres not stated)
parameter: mutagenic call
value.observed: active; positive

###

Tested on: GENE-TOX genotoxicity assays, various organisms and cells
test.protocol: GENE-TOX mutagenicity studies
test.conditions: Species/Cell Type: Chinese hamster lung (V79) cells; Assay Type: Forward gene mutation at the HPRT or ouabain locus; Assay Code: V79+; Evaluation Type: Evaluation A (Pre-1980)
Active and inactive are the calls of the source. The rule behind the calls is not given here.

structure.smiles: COc1cccc2c1C(=O)c1c(O)c3c(c(O)c1C2=O)C[C@@](O)(C(=O)CO)C[C@@H]3O[C@H]1C[C@H](N)[C@H](O)[C@H](C)O1
mutagenic call: active; positive

structure.smiles: Cc1c2ccccc2c(CO)c2c1ccc1ccccc12
mutagenic call: active; positive

structure.smiles: O[C@@H]1c2cccc3ccc4cc5ccccc5c(c4c23)[C@H]1O
mutagenic call: active; positive

structure.smiles: NC(=O)N(CCCl)N=O
mutagenic call: active; positive

structure.smiles: Cc1c2ccccc2c(CO)c2ccc3ccccc3c12
mutagenic call: active; positive

structure.smiles: CCCCCN(CCCCC)N=O
mutagenic call: active; positive

###

Tested on: GENE-TOX genotoxicity assays, various organisms and cells
test.protocol: GENE-TOX mutagenicity studies
test.conditions: Species/Cell Type: Allium cepa; Assay Type: Chromosome aberrations; Assay Code: ALC+; Evaluation Type: Evaluation A (Pre-1980)
Activity calls are given as the source filed them. The rule behind the calls is not given here.
parameter: mutagenic call

structure.smiles: c1ccc(N=NNc2ccccc2)cc1
value.observed: active; positive
//
structure.smiles: O=c1ccc(=O)[nH][nH]1
value.observed: active; positive
//
structure.smiles: C[n+]1ccc(-c2cc[n+](C)cc2)cc1
value.observed: active; positive
//
structure.smiles: CNc1nc2c(c(=O)n(C)c(=O)n2C)n1C
value.observed: active; positive
//
structure.smiles: O=C(O)COc1ccc(Cl)cc1Cl
value.observed: active; positive
//
structure.smiles: Oc1cccc(O)c1O
value.observed: active; positive
//
structure.smiles: Cc1cc(C2(c3ccc(O)c(C)c3)OC(=O)c3ccccc32)ccc1O
value.observed: active; positive
//
structure.smiles: Oc1ccccc1O
value.observed: active; positive
//
structure.smiles: O=[N+]([O-])c1ccc(O)c([N+](=O)[O-])c1
value.observed: active; positive
//
structure.smiles: COc1ccc(O)cc1
value.observed: active; positive
//
structure.smiles: Cc1cc(C(C)(C)C)c(O)c(C(C)(C)C)c1
value.observed: active; positive
//
structure.smiles: CC(C)[C@@](O)(C(=O)OCC1=CCN2CCC[C@@H]12)[C@@H](C)O
value.observed: active; positive
//
structure.smiles: Nc1ncn[nH]1
value.observed: active; positive
//
structure.smiles: Oc1cccc(O)c1
value.observed: active; positive

###

Test system: GENE-TOX genotoxicity assays, various organisms and cells
test.protocol: GENE-TOX mutagenicity studies
test.conditions: Species/Cell Type: Bacillus subtilis (H17 vs M45T); Assay Type: Rec-assay, spot test, DNA effects (bacterial DNA repair); Assay Code: REX+; Evaluation Type: Evaluation A (Pre-1980)
The source made the active and inactive calls. No rule for the calls is given here.

compound: CN(N=O)C(=O)Oc1cccc2ccccc12
mutagenic call: active; positive
//
compound: CC(C)Oc1ccccc1OC(=O)N(C)N=O
mutagenic call: active; positive
//
compound: CCOC(=O)N(C)N=O
mutagenic call: active; positive
//
compound: Cc1ccc([N+](=O)[O-])o1
mutagenic call: active; positive
//
compound: CCn1cc(C(=O)O)c(=O)c2ccc(C)nc21
mutagenic call: active; positive
//
compound: CCC(C)c1ccccc1OC(=O)N(C)N=O (configuration not stated)
mutagenic call: active; positive
//
compound: Cc1cc(C)cc(OC(=O)N(C)N=O)c1
mutagenic call: active; positive
//
compound: Cc1ccc(OC(=O)N(C)N=O)cc1C
mutagenic call: active; positive
//
compound: Cc1cccc(OC(=O)N(C)N=O)c1
mutagenic call: active; positive
//
compound: CN(N=O)C(=O)Oc1ccccc1Cl
mutagenic call: active; positive
//
compound: O=C1OC2(c3cc(Br)c(O)c(Br)c3Oc3c2cc(Br)c(O)c3Br)c2c(Cl)ccc(Cl)c21
mutagenic call: active; positive
//
compound: CC(C)c1ccccc1OC(=O)N(C)N=O
mutagenic call: active; positive

###

System: GENE-TOX genotoxicity assays, various organisms and cells
test.protocol: GENE-TOX mutagenicity studies
test.conditions: Species/Cell Type: Syrian hamster embryo (SHE) cells; Assay Type: Cell transformation, clonal assay; Assay Code: CTC+; Evaluation Type: Evaluation A (Pre-1980)
Description: GENE-TOX provides genetic toxicology (mutagenicity) test data from expert peer review of open scientific literature for more than 3,000 chemicals from the United States Environmental Protection Agency (EPA). GENE-TOX was established to select assay systems for evaluation, review data in the scientific literature, and recommend proper testing protocols and evaluation procedures for these systems. GENE-TOX covers the years 1991 - 1998. It is no longer updated. […]
Activity calls are given as the source filed them. No rule for the calls is given here.
parameter: mutagenic call

compound: Cc1c(N)nc(C)c2c1[nH]c1ccccc12
test.target: GENE-TOX genotoxicity assays, various organisms and cells
value.observed: active; positive
--
compound: O=CC1CO1 (centres undefined)
test.target: GENE-TOX genotoxicity assays, various organisms and cells
value.observed: active; positive
--
compound: O=[N+]([O-])c1ccc(-c2ccccc2)cc1
test.target: GENE-TOX genotoxicity assays, various organisms and cells
value.observed: active; positive
--
compound: CC(N)=O
test.target: GENE-TOX genotoxicity assays, various organisms and cells
value.observed: active; positive
--
compound: O=NO
test.target: GENE-TOX genotoxicity assays, various organisms and cells
value.observed: active; positive
--
compound: Nc1ccc2cc3ccccc3cc2c1
test.target: GENE-TOX genotoxicity assays, various organisms and cells
value.observed: active; positive
--
compound: CCCCN(COC(C)=O)N=O
test.target: GENE-TOX genotoxicity assays, various organisms and cells
value.observed: active; positive
--
compound: CI
test.target: GENE-TOX genotoxicity assays, various organisms and cells
value.observed: active; positive
--
compound: [N-]=[N+]=CC(=O)OC[C@H](N)C(=O)O
test.target: GENE-TOX genotoxicity assays, various organisms and cells
value.observed: active; positive

###

Test system: GENE-TOX genotoxicity assays, various organisms and cells
test.protocol: GENE-TOX mutagenicity studies
test.conditions: Species/Cell Type: Vicia faba; Assay Type: Chromosome aberrations; Assay Code: VIC+D; Dose Response: With dose response; Evaluation Type: Evaluation A (Pre-1980)
Active and inactive are the calls of the source. No rule for the calls is given here.
parameter: mutagenic call

molecule: CC(=O)C(NC(=O)C(C)C(O)C(C)NC(=O)C(NC(=O)c1nc(C(CC(N)=O)NCC(N)C(N)=O)nc(N)c1C)C(O[C@@H]1O[C@@H](CO)[C@@H](O)[C@H](O)[C@]1(C)O[C@@H]1OC(CO)[C@H](O)[C@](O)(C(N)=O)[C@H]1O)c1cnc[nH]1)C(=O)NCCC1=NC(c2nc(C(N)=O)cs2)CS1 (stereo not given in full)
parameter: mutagenic call
value.observed: active; positive
--
molecule: CCN(CCCl)CCCNc1c2ccc(Cl)cc2nc2ccc(OC)cc12
parameter: mutagenic call
value.observed: active; positive
--
molecule: O=c1ccc(=O)[nH][nH]1
parameter: mutagenic call
value.observed: active; positive
--
molecule: CC1CN1P(=O)(N1CC1C)N1CC1C (stereo not given)
parameter: mutagenic call
value.observed: active; positive
--
molecule: COc1cccc2c1C(=O)c1c(O)c3c(c(O)c1C2=O)C[C@@](O)(C(C)=O)C[C@@H]3O[C@H]1C[C@H](N)[C@H](O)[C@H](C)O1
parameter: mutagenic call
value.observed: active; positive
--
molecule: CNC(=O)CSP(=S)(OC)OC
parameter: mutagenic call
value.observed: active; positive
--
molecule: CS(=O)(=O)OCC(O)C(O)COS(C)(=O)=O (stereo not given)
parameter: mutagenic call
value.observed: active; positive
--
molecule: O=C(CCCCCCCCC(=O)N1CC1)N1CC1
parameter: mutagenic call
value.observed: active; positive
--
molecule: O=S(=O)(c1ccc(Cl)cc1)c1cc(Cl)c(Cl)cc1Cl
parameter: mutagenic call
value.observed: active; positive
--
molecule: Nc1ncnc2c1ncn2[C@@H]1O[C@H](CO)[C@@H](O)[C@@H]1O
parameter: mutagenic call
value.observed: active; positive
